A collection of compounds and their measured TGI
Test system: KM12 colon
Experiment: NCI tumour cell line growth inhibition, 48 h

State the recorded TGI for this entry: CC1(C)C2CCC3(C2)CS(=O)(=O)N2OC231 (stereo not drawn) 41.9 µM

And then CCN(CCNc1ccc(C)c2sc3ccccc3c(=O)c12)CC(C)(C)O , what is it? 14.1 µM

And then c1ccc2c(c1)nc1n2CCSC1 , what is it? > 100 µM

And then C#CCn1c(=O)c(C#N)c(O)c2cc3ccccc3nc21 , what is it? > 100 µM

And then O=C1NC2(CN3CCC2CC3)C(=O)N1CN(Cc1ccccc1)c1ccccc1 (stereo not drawn) , what is it? > 100 µM

Next:
State the recorded TGI for this entry: CCc1c(C)c(C#N)c(=S)n(C2OC(CO)C(O)C(O)C2O)c1C (stereo not drawn) > 100 µM

And then CC(C)N(C)C(=O)C12C3C4C1C1C2C3C41C#N (stereo not drawn) , what is it? > 100 µM

And then Oc1ccc(CCc2cc(O)cc(O)c2)cc1 , what is it? > 100 µM

And then CN=C1SC(=Nc2ccc(N(C)C)cc2)N1C , what is it? > 100 µM

* * *

Tested on: CCRF-CEM leukemia
Test: NCI tumour cell line growth inhibition, 48 h
measurement kind: GI50

Use these answered entries as a reference point.
State the recorded GI50 for this entry: C[C@]12CC[C@@H]3c4ccc(O)cc4C(O)C[C@H]3[C@@H]1CCC2=O (stereo not given in full) > 100000 nM

And then C/C(=N\NC(N)=S)c1nc2ccc(Cl)cc2[nH]1 , what is it? 2110 nM

And then Cc1ccc(NC(=O)Cn2c(Br)nc3c2c(=O)n(C)c(=O)n3C)cc1 , what is it? 17300 nM

And then COc1ccc(C(=O)N2c3ccccc3Sc3ccccc32)c(C(F)(F)F)c1 , what is it? 87.9 nM

And then COc1cc(/C=C2/N=C(c3ccccc3)N(C3=NNC4(C(=O)N3)c3ccccc3-c3ccccc34)NC2=O)ccc1O , what is it? 46.3 µg/mL

Now for the molecule whose GI50 we want.
State the recorded GI50 for this entry: COc1ccc2c(c1)/c(=C/c1ccc(N(C)C)cc1)c1cc(-c3ccccc3)[n+](C)n12 85.9 nM

* * *

Test system: A498 renal
Assay: NCI tumour cell line growth inhibition, 48 h
measurement kind: GI50

Use these answered entries as a reference point.
Entry CCCCCCN(CCCCCC)CC(O)c1ccc2c3c(cccc13)CC2 (configuration not stated) , system A498 renal: what GI50 was measured? 2.31 µM

And then Cc1cc(N/N=C/c2nc(-c3ccc(Cl)cc3)oc2C)c2cc(Cl)ccc2n1 , what is it? 11.7 µM

And then C[C-](O)O.O/C(=C\[C-](O)c1ccccc1)c1ccccc1.O/C(=C\[C-](O)c1ccccc1)c1ccccc1.[Nd+3] (configuration not stated) , what is it? 11.7 µM

And then O=[N+]([O-])c1ccc2c(c1)[O][Sn]([I])([I])[O]2 , what is it? > 100 µM

Next:
Entry O=C([CH-]C(=O)C(F)(F)F)c1ccccc1.O=C([CH-]C(=O)C(F)(F)F)c1ccccc1.O=C([CH-]C(=O)C(F)(F)F)c1ccccc1.O=C([CH-]C(=O)C(F)(F)F)c1ccccc1.[Eu+3].c1ccncc1 , system A498 renal: what GI50 was measured? 18.4 µM

And then CC(=O)Nc1ccc(S(=O)(=O)NNC(=O)c2cccnc2Nc2ccc(Cl)cc2)cc1 , what is it? 18.4 µM

And then N#C[C@@H]1C(n2ccc(N)nc2=O)O[C@H](CO)[C@H]1O (some centres not stated) , what is it? > 100 µM
